Target: Protein LANA1 (Human herpesvirus 8 type P (isolate GK18)) (UniProt Q9QR71)
Sequence (Q9QR71 whole entry, looked up): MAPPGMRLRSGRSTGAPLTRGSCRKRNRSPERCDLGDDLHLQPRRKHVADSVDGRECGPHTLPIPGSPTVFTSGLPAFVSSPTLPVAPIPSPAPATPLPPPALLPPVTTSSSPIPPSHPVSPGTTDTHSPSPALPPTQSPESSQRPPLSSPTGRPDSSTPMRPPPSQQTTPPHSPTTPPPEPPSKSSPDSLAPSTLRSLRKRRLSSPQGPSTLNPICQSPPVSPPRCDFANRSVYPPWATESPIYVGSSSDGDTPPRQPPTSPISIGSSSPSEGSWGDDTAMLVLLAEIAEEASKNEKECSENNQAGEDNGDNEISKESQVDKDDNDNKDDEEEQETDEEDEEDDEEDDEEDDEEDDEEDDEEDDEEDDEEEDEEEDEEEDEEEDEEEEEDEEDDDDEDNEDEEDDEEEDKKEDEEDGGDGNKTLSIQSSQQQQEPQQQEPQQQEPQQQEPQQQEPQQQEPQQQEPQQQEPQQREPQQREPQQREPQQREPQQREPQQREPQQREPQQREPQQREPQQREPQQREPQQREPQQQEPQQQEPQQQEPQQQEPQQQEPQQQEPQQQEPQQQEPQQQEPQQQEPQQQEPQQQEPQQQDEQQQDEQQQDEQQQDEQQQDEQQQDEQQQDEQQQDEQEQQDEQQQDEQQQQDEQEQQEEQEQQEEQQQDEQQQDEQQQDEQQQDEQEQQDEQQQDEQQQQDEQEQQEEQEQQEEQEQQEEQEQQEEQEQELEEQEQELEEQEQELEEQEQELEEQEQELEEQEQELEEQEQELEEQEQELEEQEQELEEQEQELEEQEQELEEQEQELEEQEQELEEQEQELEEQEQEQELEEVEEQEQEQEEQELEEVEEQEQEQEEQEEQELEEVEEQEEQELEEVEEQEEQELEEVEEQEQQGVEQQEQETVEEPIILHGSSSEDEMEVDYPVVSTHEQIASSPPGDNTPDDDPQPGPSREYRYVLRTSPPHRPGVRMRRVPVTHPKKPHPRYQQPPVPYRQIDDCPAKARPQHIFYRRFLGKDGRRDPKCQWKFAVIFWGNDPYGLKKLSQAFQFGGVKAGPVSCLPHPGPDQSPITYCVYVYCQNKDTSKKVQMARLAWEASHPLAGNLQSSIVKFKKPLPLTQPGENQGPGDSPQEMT
Test: blockers of LANA interaction with H2A/H2B – biochemical, FP readout, HTS, primary screen (AID 2629)
Conditions: cell-free LANA-H2A/H2B peptide, fluorescence polarization, hits give high values, concentration not given here
Out of some 320,000 compounds screened, about 1,900 (0.59%) were called active. For the sample, actives were picked, then their nearest neighbours and some compounds at random.
readout-label: inhibition (%)
Answer with a number only, understood to be in %.

| smiles-repr | inhibition [%] |
| --- | --- |
| COc1ccc(S(=O)(=O)N2CCOCC2)cc1NC(=O)CSc1nnc(NC2CC2)s1 | -4.5 |
| Cc1cc(N2C(=O)c3ccc(C(=O)NCc4ccccc4)cc3C2=O)no1 | 0.191 |
| CN1CCN(S(=O)(=O)c2ccc(Nc3ccc(F)cc3)nc2)CC1 | 3.84 |
| CC(=O)Nc1ccc(S(=O)(=O)NNC(=O)CCc2ccccc2)cc1 | -3.72 |

Qu. Can you share its inhibition? I mean this molecule: O=C(CNC(=O)c1ccc(-c2ccccc2)cc1)OCc1ccc(Cl)cc1
Ans. -3.98
